targetEntity: JAK2 (JH1 domain-catalytic, Y1007F, Y1008F) kinase (Homo sapiens (Human), UniProt O60674, Y1007F/Y1008F)
Sequence (O60674 849-1124 Y1007F/Y1008F): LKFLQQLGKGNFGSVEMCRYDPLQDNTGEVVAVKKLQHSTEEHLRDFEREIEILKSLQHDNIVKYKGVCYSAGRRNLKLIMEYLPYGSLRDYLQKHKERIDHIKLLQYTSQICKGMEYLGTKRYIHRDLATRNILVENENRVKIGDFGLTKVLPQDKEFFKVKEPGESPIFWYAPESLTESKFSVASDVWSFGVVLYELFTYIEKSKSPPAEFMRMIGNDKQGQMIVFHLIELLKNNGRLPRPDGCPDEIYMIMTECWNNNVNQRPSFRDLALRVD
experimentNotes: JAK2 JH1 Domain Binding Assay
measurementContext: qPCR readout
pKd: −log10 of the molar value.
observationType: pKd

The compound identified as COc1c[nH]c2ncc(N3CC[C@H](N(C)C(=O)Nc4cc(C(F)(F)F)cn(C)c4=O)[C@@H](F)C3)nc12 [Example I-149] registered its pKd at > 8.00

The compound identified as CN(C(=O)Nc1cc(C(F)(F)F)cn(C)c1=O)[C@H]1CCN(c2cnc3[nH]ncc3c2)CC1(C)C (single isomer, unassigned) [Example I-45-a] registered its pKd at > 8.00

* * *

targetEntity: JAK2 (JH1 domain-catalytic, Y1007F, Y1008F) kinase (Homo sapiens (Human), UniProt O60674, Y1007F/Y1008F)
experimentNotes: JAK2 JH1 Domain Binding Assay
measurementContext: qPCR readout
Procedure: JAK2 (JH1 domain-catalytic, Y1007F, Y1008F) kinase was expressed as N-terminal fusion to the DNA binding domain of NFkB in transiently transfected HEK293 cells and subsequently tagged with DNA for qPCR detection. Streptavidin-coated magnetic beads were treated with biotinylated small molecule ligands for 30 minutes at room temperature to generate affinity resins for kinase assays. […] The kinase concentration in the eluate was measured by qPCR.
observationType: Kd

COc1n[nH]c2ncc(N3CC[C@@H](N(C)C(=O)Nc4cc(C(F)(F)F)cn(C)c4=O)[C@H](F)C3)cc12 [Example I-84-b] | < 10 nM
COCCOc1n[nH]c2ncc(N3CC[C@H](N(C)C(=O)Nc4cc(C(F)(F)F)cn(C)c4=O)C[C@@H]3C)cc12 [Example I-132-a] | 10 to 50 nM
CC(=O)Nc1cnc(N2CCC(N(C)C(=O)Nc3cc(C(F)(F)F)cc(C)n3)CC2)cn1 [Example I-23] | < 10 nM
CN(C(=O)Nc1cc(C(F)(F)F)cn(C)c1=O)C1(C)CCN(c2cnc3[nH]ccc3n2)CC1 [Example I-51] | 10 to 50 nM
COc1c[nH]c2ncc(N3CC[C@H]4[C@H](C3)OCCN4C(=O)Nc3cc(C(F)(F)F)cn(C)c3=O)nc12 [Example I-163-a] | 10 to 50 nM

The compound identified as COc1n[nH]c2ncc(N3CC[C@H](N(C)C(=O)Nc4cc(C(F)(F)F)cn(C)c4=O)[C@H](F)C3)cc12 [Example I-87-b] registered its Kd at < 10 nM

The compound identified as COCCOc1n[nH]c2ncc(N3CC[C@@H](N(C)C(=O)Nc4cc(C(F)(F)F)cn(C)c4=O)[C@@H](F)C3)cc12 [Example I-104-a] registered its Kd at < 10 nM

* * *

targetEntity: JAK2 (JH1 domain-catalytic, Y1007F, Y1008F) kinase (Homo sapiens (Human), UniProt O60674, Y1007F/Y1008F)
experimentNotes: JAK2 JH1 Domain Binding Assay
measurementContext: qPCR readout
observationType: Kd

The compound identified as CN(C(=O)Nc1cc(C(F)(F)F)cn(C)c1=O)[C@H]1CCN(c2cnc3[nH]n(C)c(=O)c3c2)CC1(F)F registered its Kd at < 10 nM

The compound identified as CN(C(=O)Nc1cc(C(F)(F)F)cn(C)c1=O)[C@@H]1CCN(c2cnc3[nH]nc(OC4CCOCC4)c3c2)C[C@H]1F registered its Kd at < 10 nM

The compound identified as CN(C(=O)Nc1cc(C(F)(F)F)cn(C)c1=O)[C@H]1[C@@H]2CC[C@H]1CN(c1cnc3[nH]ccc3n1)C2 registered its Kd at 10 to 50 nM

The compound identified as CN(C(=O)Nc1cc(C(F)(F)F)cn(C)c1=O)C1CCN(c2cnc3[nH]ccc3n2)CC1(C)C (single isomer, unassigned) [Example I-49-b] registered its Kd at < 10 nM

The compound identified as CN1CCN(c2n[nH]c3ncc(N4CC[C@@H](N(C)C(=O)Nc5cc(C(F)(F)F)cn(C)c5=O)C(F)(F)C4)cc23)CC1 (single isomer, unassigned) registered its Kd at < 10 nM

* * *

Reported pKd values for a set of compounds
targetEntity: JAK2 (JH1 domain-catalytic, Y1007F, Y1008F) kinase (Homo sapiens (Human), UniProt O60674, Y1007F/Y1008F)
experimentNotes: JAK2 JH1 Domain Binding Assay
measurementContext: qPCR readout
pKd: −log10 of the molar value.

The compound identified as C[C@@H]1CN(c2cnc3[nH]ncc3c2)CC[C@H]1N(C)C(=O)Nc1cc(C(F)(F)F)cn(C)c1=O registered its pKd at 6.00 to 7.30

The compound identified as Cn1cc(C(F)(F)F)cc(NC(=O)C2(C3CCN(c4cnc5[nH]cc(F)c5n4)CC3)CC2)c1=O registered its pKd at > 8.00

The compound identified as C[C@@H]1CN(c2cnc3[nH]ccc3n2)CC[C@@H]1N(C)C(=O)Nc1cc(C(F)(F)F)cn(C)c1=O registered its pKd at > 8.00

* * *

targetEntity: JAK2 (JH1 domain-catalytic, Y1007F, Y1008F) kinase (Homo sapiens (Human), UniProt O60674, Y1007F/Y1008F)
experimentNotes: JAK2 JH1 Domain Binding Assay
measurementContext: qPCR readout
pKd: −log10 of the molar value.
observationType: pKd

Recorded pKd, per entry:
COc1n[nH]c2ncc(N3CC[C@H](N(C)C(=O)Nc4cc(C(F)(F)F)cn(C)c4=O)[C@@H](OC)C3)cc12 | 7.30 to 8.00
CNc1n[nH]c2ncc(N3CC[C@@H](N(C)C(=O)Nc4cc(C(F)(F)F)cn(C)c4=O)C(F)(F)C3)cc12 | > 8.00
CN(C(=O)Nc1cc(C(F)(F)F)cn(C)c1=O)[C@H]1CCN(c2cnccn2)CC1(F)F (single isomer, unassigned) | 7.30 to 8.00
CC(=O)Nc1ccc(N2CCC(N(C)C(=O)Nc3cc(C(F)(F)F)cn(C)c3=O)CC2)cn1 | > 8.00
Cn1cc(C(F)(F)F)cc(NC(=O)N2CCCC23CCN(c2cnc4[nH]cc(F)c4n2)CC3)c1=O | 6.00 to 7.30

The molecule identified as CN(C(=O)Nc1cc(C(F)(F)F)cn(C)c1=O)[C@H]1CCN(c2cnc3[nH]nc(OC4COC4)c3c2)C[C@H]1F registered its pKd at 5.30 to 6.00

The molecule identified as CN(C(=O)Nc1cc(C(F)(F)F)cn(C)c1=O)[C@@H]1C[C@@H]2C[C@H]1CN2c1cnc(NC(=O)C2CC2)cn1 (single isomer, unassigned) registered its pKd at 7.30 to 8.00

* * *

targetEntity: JAK2 (JH1 domain-catalytic, Y1007F, Y1008F) kinase (Homo sapiens (Human), UniProt O60674, Y1007F/Y1008F)
experimentNotes: JAK2 JH1 Domain Binding Assay
measurementContext: qPCR readout
pKd: −log10 of the molar value.
observationType: pKd

Cc1cc(NC(=O)N(C)C2CCN(c3cnc4[nH]ncc4c3)CC2)cc(C(F)(F)F)c1 | > 8.00

The compound identified as Cc1cc(C(F)(F)F)cc(NC(=O)N(C)[C@H]2CCN(c3cnc4[nH]ncc4c3)C[C@@H]2F)n1 registered its pKd at > 8.00

The compound identified as CN(C(=O)Nc1cc(C(F)(F)F)cn(C)c1=O)C12CC(c3ccc(NC(=O)C4CC4)nc3)(C1)C2 registered its pKd at 7.30 to 8.00

* * *

targetEntity: JAK2 (JH1 domain-catalytic, Y1007F, Y1008F) kinase (Homo sapiens (Human), UniProt O60674, Y1007F/Y1008F)
experimentNotes: JAK2 JH1 Domain Binding Assay
measurementContext: qPCR readout
Protocol: JAK2 (JH1 domain-catalytic, Y1007F, Y1008F) kinase was expressed as N-terminal fusion to the DNA binding domain of NFkB in transiently transfected HEK293 cells and subsequently tagged with DNA for qPCR detection. Streptavidin-coated magnetic beads were treated with biotinylated small molecule ligands for 30 minutes at room temperature to generate affinity resins for kinase assays. […] The kinase concentration in the eluate was measured by qPCR.
Reported Kd values for a set of compounds

CN(C(=O)Nc1cc(C(F)(F)F)cn(C)c1=O)[C@@H]1CCN(c2cnc3[nH]ncc3n2)C[C@@H]1F | < 10 nM
COCCOc1n[nH]c2ncc(N3CC[C@@H](N(C)C(=O)Nc4cc(C(F)(F)F)cn(C)c4=O)C[C@H]3C)cc12 | 10 to 50 nM
Cc1n[nH]c2ncc(N3CCC(N(C)C(=O)Nc4cc(C(F)(F)F)cn(C)c4=O)C(F)(F)C3)cc12 (single isomer, unassigned) [Example I-36-b] | < 10 nM

Here's the next entry for you.
The compound identified as CC(=O)Nc1cnc(N2CCC(CC(=O)Nc3cc(C)cc(C(F)(F)F)c3)CC2)cn1 registered its Kd at 50 to 1000 nM
